System: E28 (patient-derived glioblastoma stem cells of classical subtype);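 note: cell Painting imaging in 384-well plates, CellProfiler features reduced to at least 20 principal components, Euclidean distance versus same-plate DMSO vehicle wells (0.1% v/v), median over six images per well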
protocol-description: phenotypic distance (Euclidean, principal components) from DMSO controls (arbitrary units); higher = stronger morphological change
measurement-setup: 4.1 nM; exposure time: 72 h
Structures can show the parent of a compound that is named as a salt.
# if value of phenotypic distance reaches 0.8, tag Y; if it stays below, tag N

INSERT INTO results (molecule, category_label) VALUES
  ('COc1cc2c(cc1-c1c(C)noc1C)ncc1[nH]c(=O)n([C@H](C)c3ccccn3)c12', 'Y'),
  ('CC(C)NCC(O)c1cc(O)cc(O)c1 (configuration not stated) [Metaproterenol sulfate, orciprenaline sulfate]', 'N'),
  ('C=CC(=O)Nc1cccc(Oc2nc(Nc3ccc(N4CCN(C)CC4)cc3)nc3ccsc23)c1 [Olmutinib]', 'N'),
  ('C[C@H]1O[C@@H](O[C@H]2[C@@H](O)C[C@H](O[C@H]3[C@@H](O)C[C@H](O[C@H]4CC[C@@]5(C)[C@H](CC[C@@H]6[C@@H]5C[C@@H](O)[C@]5(C)[C@@H](C7=CC(=O)OC7)CC[C@]65O)C4)O[C@@H]3C)O[C@@H]2C)C[C@H](O)[C@@H]1O [Digoxin]', 'Y'),
  ('O=C(Nc1ccc([N+](=O)[O-])cc1Cl)c1cc(Cl)ccc1O [Niclosamide]', 'Y'),
  ('O=C(/C=C\n1cnc(-c2cc(C(F)(F)F)cc(C(F)(F)F)c2)n1)NNc1cnccn1 [Selinexor]', 'Y');

====

System: E31 (patient-derived glioblastoma stem cells of proneural subtype)
protocol-description: surviving fraction (nuclei count normalised to DMSO); higher = more cells surviving (less toxic)
measurement-setup: 333.3 nM; exposure time: 72 h
Structures can show the parent of a compound that is named as a salt.
Catalogue of surviving fraction readings, one per entry.
attribute-measured: surviving fraction

INSERT INTO measurements (compound, attribute_measured, obs_value) VALUES
  ('COc1cc2c[n+](C)c3c4cc5c(cc4ccc3c2cc1OC)OCO5 [Nitidine chloride]', 'surviving fraction', 0.582),
  ('COc1cccc2c1C(=O)c1c(O)c3c(c(O)c1C2=O)C[C@@](O)(C(=O)CO)C[C@@H]3O[C@H]1C[C@H](N)[C@H](O)[C@H](C)O1 [Doxorubicin hydrochloride]', 'surviving fraction', 0.105),
  ('CC(NCCC(c1ccccc1)c1ccccc1)c1ccccc1 (stereo unspecified) [Fendiline hydrochloride]', 'surviving fraction', 0.968),
  ('CCC(=O)OCC(=O)[C@@]1(OC(=O)CC)[C@H](C)C[C@H]2[C@H]3[C@H]([C@@H](O)C[C@@]21C)[C@@]1(C)C=CC(=O)C=C1C[C@H]3Cl [Alclometasone dipropionate]', 'surviving fraction', 1.12),
  ('CCCCCCC[N+](CC)(CC)CCCCc1ccc(Cl)cc1 [Clofilium tosylate]', 'surviving fraction', 1.01),
  ('Cc1cc(/C=C/c2ccc3cc(N(C)C)ccc3[n+]2C)c(C)n1-c1ccccc1 [Pyrvinium pamoate]', 'surviving fraction', 0.146);

====

Tested on: E34 (patient-derived glioblastoma stem cells of proneural subtype)
protocol-description: surviving fraction (nuclei count normalised to DMSO); higher = more cells surviving (less toxic)
measurement-setup: 333.3 nM; exposure time: 72 h
Counter-ions that a name gives are not always drawn.
# label = y if surviving fraction >= 0.8 else n

INSERT INTO measurements (compound, subject_of_test, category_label) VALUES
  ('CN(c1nccc(=O)[nH]1)C1CCN(c2nc3ccccc3n2Cc2ccc(F)cc2)CC1', 'E34', 'y'),
  ('Cc1ccc(NC(=O)c2ccc3c(c2)OCCO3)cc1NC(=O)c1ccc2nc(OCCN3CCCC3)ccc2c1', 'E34', 'n'),
  ('CCCCCCCCCCCCCC(=O)O[C@@H]1[C@@H](C)[C@@]2(O)[C@@H](C=C(CO)C[C@]3(O)C(=O)C(C)=C[C@@H]23)[C@@H]2C(C)(C)[C@]12OC(C)=O [Phorbol 12-myristate 13-acetate]', 'E34', 'n'),
  ('CCn1cc(-c2ccnc3[nH]c(-c4cccc(CN(C)C)c4)cc23)c(-c2ccc(NC(=O)N(C)C)cc2)n1', 'E34', 'y'),
  ('Oc1c(Cl)cc(Cl)c(Cl)c1Cc1c(O)c(Cl)cc(Cl)c1Cl', 'E34', 'n'),
  ('COc1nc(C)nc(Cl)c1NC1=NCCN1', 'E34', 'y'),
  ('CCOC(=O)C1=C(C)NC(C)=C(C(=O)OCC)C1c1c(F)c(F)c(F)c(F)c1F', 'E34', 'y'),
  ('COc1cc(N)c(Cl)cc1C(=O)NC1CCN(CCCOc2ccc(F)cc2)CC1OC (stereo not drawn) [Cisapride]', 'E34', 'y'),
  ('C=C[C@H]1CN2CC[C@H]1C[C@@H]2[C@@H](O)c1ccnc2ccc(OC)cc12 [Quinidine hydrochloride monohydrate]', 'E34', 'y'),
  ('OC[C@H]1O[C@@H](Oc2ccc(O)cc2)[C@H](O)[C@@H](O)[C@@H]1O', 'E34', 'y'),
  ('COc1ccc2[nH]c([S+]([O-])Cc3ncc(C)c(OC)c3C)nc2c1 (stereo not drawn)', 'E34', 'y'),
  ('c1ccc2c(c1)[I+]c1ccccc1-2 [Diphenyleneiodonium chloride]', 'E34', 'n'),
  ('CN1[C@@H]2CC[C@H]1CC(OC(=O)c1c[nH]c3ccccc13)C2 (stereo partly drawn) [3-Tropanyl-indole-3-carboxylate hydrochloride]', 'E34', 'y'),
  ('COc1cccc2c1C(=O)c1c(O)c3c(c(O)c1C2=O)C[C@@](O)(C(=O)CO)C[C@@H]3O[C@H]1C[C@H](N)[C@H](O)[C@H](C)O1 [Doxorubicin hydrochloride]', 'E34', 'n'),
  ('COC(=O)Nc1nc2cc(C(=O)c3ccccc3)ccc2[nH]1', 'E34', 'n'),
  ('NC1CCN(c2nc3c(cc2F)c(=O)c(C(=O)O)cn3-c2ccc(F)cc2F)C1 (stereo not drawn) [Tosufloxacin hydrochloride]', 'E34', 'y'),
  ('CCCSc1ccc2[nH]c(NC(=O)OC)nc2c1', 'E34', 'n'),
  ('CC(C)C[C@H](NC(=O)[C@H](CCc1ccccc1)NC(=O)CN1CCOCC1)C(=O)N[C@@H](Cc1ccccc1)C(=O)N[C@@H](CC(C)C)C(=O)[C@@]1(C)CO1', 'E34', 'n'),
  ('CC[C@@]1(O)C(=O)OCc2c1cc1n(c2=O)Cc2cc3cc(O)ccc3nc2-1 [Hydroxy Camptothecine]', 'E34', 'n'),
  ('COc1cc([C@@H]2c3cc4c(cc3[C@@H](O[C@@H]3O[C@@H]5CO[C@@H](c6cccs6)O[C@H]5[C@H](O)[C@H]3O)[C@H]3COC(=O)[C@H]23)OCO4)cc(OC)c1O [Teniposide]', 'E34', 'n'),
  ('CSc1ccc2c(c1)N(CCC1CCCCN1C)c1ccccc1S2 (stereo not drawn) [Thioridazine hydrochloride]', 'E34', 'y'),
  ('CN[C@@H](C)C(=O)N[C@H](C(=O)N1CCC[C@H]1C(=O)N[C@H]1c2ccccc2C[C@H]1OCC#CC#CCO[C@@H]1Cc2ccccc2[C@@H]1NC(=O)[C@@H]1CCCN1C(=O)[C@@H](NC(=O)[C@H](C)NC)C1CCCCC1)C1CCCCC1', 'E34', 'y'),
  ('CC(=O)[C@]1(O)Cc2c(O)c3c(c(O)c2[C@@H](O[C@H]2C[C@H](N)[C@H](O)[C@H](C)O2)C1)C(=O)c1ccccc1C3=O', 'E34', 'n'),
  ('CN(C(=O)CN(CCO)CC(=O)N(C)C(C)(C)Cc1ccccc1)C(C)(C)Cc1ccccc1', 'E34', 'y'),
  ('Nc1ncnc2c1c(-c1ccc(Oc3ccccc3)cc1)cn2C1CCCC1', 'E34', 'y'),
  ('Cc1c(-c2ccc(-c3ccccc3F)cc2)nc2ccc(F)cc2c1C(=O)O [Brequinar sodium salt hydrate]', 'E34', 'y'),
  ('CC(C)CC(=O)N[C@H](C(=O)N[C@H](C(=O)N[C@@H](CC(C)C)[C@@H](O)CC(=O)N[C@@H](C)C(=O)N[C@@H](CC(C)C)[C@@H](O)CC(=O)O)C(C)C)C(C)C', 'E34', 'y'),
  ('COc1cc(NS(C)(=O)=O)ccc1Nc1c2ccccc2nc2ccccc12', 'E34', 'n');
